B1: Homeobox expressed in ES cells 1, residues 110 to 165; numbered along this chain, Q9UBX0 (parent)
chain: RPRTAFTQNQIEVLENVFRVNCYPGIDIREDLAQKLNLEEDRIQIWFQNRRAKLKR

variants of: B1; assay: abundance fitness (aPCA) (normalised: wild type 0, dead -1); higher = more abundant; growth selection in yeast, the domain comes from the species named; conditions: Homo sapiens
Class membership depends on abundance fitness alone; the intervals are Low: < -0.5; Medium: ≥ -0.5 and < -0.1; High: ≥ -0.1

- Mutation key: "I28K"
  Qualitative label: "Low"
- Mutation key: "T7S"
  Qualitative label: "High"
- Mutation key: "G25K"
  Qualitative label: "High"
- Mutation key: "I28G"
  Qualitative label: "Low"
- Mutation key: "Q34D"
  Qualitative label: "Medium"
- Mutation key: "V17Y"
  Qualitative label: "Medium"
- Mutation key: "N16K"
  Qualitative label: "High"
- Mutation key: "N9L"
  Qualitative label: "High"
- Mutation key: "N9E"
  Qualitative label: "High"
- Mutation key: "R3K"
  Qualitative label: "High"
- Mutation key: "Q34I"
  Qualitative label: "Medium"
- Mutation key: "Q8G"
  Qualitative label: "Medium"
- Mutation key: "V20F"
  Qualitative label: "High"
- Mutation key: "E15Y"
  Qualitative label: "Low"
- Mutation key: "E30C"
  Qualitative label: "High"
- Mutation key: "E15D"
  Qualitative label: "Low"
- Mutation key: "D27G"
  Qualitative label: "High"
- Mutation key: "F18R"
  Qualitative label: "Low"
- Mutation key: "T4Q"
  Qualitative label: "High"
- Mutation key: "F6G"
  Qualitative label: "Low"
- Mutation key: "L32G"
  Qualitative label: "Low"
- Mutation key: "T7W"
  Qualitative label: "Low"
- Mutation key: "A33K"
  Qualitative label: "Low"
- Mutation key: "D27W"
  Qualitative label: "Low"
- Mutation key: "Y23K"
  Qualitative label: "Medium"
- Mutation key: "F18L"
  Qualitative label: "Medium"
- Mutation key: "L14A"
  Qualitative label: "Low"
- Mutation key: "I11Y"
  Qualitative label: "Medium"
- Mutation key: "T4E"
  Qualitative label: "High"
- Mutation key: "I11A"
  Qualitative label: "Medium"
- Mutation key: "R19M"
  Qualitative label: "Low"
- Mutation key: "T7H"
  Qualitative label: "Medium"
- Mutation key: "L32A"
  Qualitative label: "Low"
- Mutation key: "R19F"
  Qualitative label: "Medium"
- Mutation key: "L14I"
  Qualitative label: "Medium"
- Mutation key: "T7N"
  Qualitative label: "High"
- Mutation key: "Q10P"
  Qualitative label: "Low"
- Mutation key: "P24V"
  Qualitative label: "Low"
- Mutation key: "C22V"
  Qualitative label: "Medium"
- Mutation key: "N21D"
  Qualitative label: "Medium"
- Mutation key: "N16C"
  Qualitative label: "Medium"
- Mutation key: "A5Y"
  Qualitative label: "High"
- Mutation key: "C22P"
  Qualitative label: "High"
- Mutation key: "A33G"
  Qualitative label: "Medium"
- Mutation key: "T7D"
  Qualitative label: "High"
- Mutation key: "I28W"
  Qualitative label: "Low"
